These entries and their values trace back to ChEMBL document CHEMBL2380239.

Let's look at some compounds and their measured selectivity ratio.
Assay: Therapeutic index, ratio of IC50 for human CD34-positive blood stem/progenitor cells to IC50 for human MA9.3 cells
Conditions: CD34-positive blood stem/progenitor cells versus MA9.3 cells, read-out: Ratio IC50
Measured property: selectivity ratio

1) O=C(O)CCCc1ccc(N(CCCl)CCCl)cc1 | 1.3
2) Nc1ccn([C@@H]2O[C@H](CO)[C@@H](O)[C@@H]2O)c(=O)n1 | 0.6
3) CN(CCCOc1ccc(O)cc1)c1ccccc1 | 7.7
4) Oc1ccc(OCCN(CCOc2ccc(O)cc2)c2ccccc2)cc1 | 5.3

----------
Assay: Cytotoxicity against human MA9.3 cells after 48 hrs by MTT assay
Format: functional, cell-based
pIC50: −log10 of the molar value.
Use Fulfilled when the recorded pIC50 is no lower than 6; use Not fulfilled when it is lower.

1. COc1cccc2c1C(=O)c1c(O)c3c(c(O)c1C2=O)C[C@@](O)(C(=O)CO)C[C@@H]3O[C@H]1C[C@H](N)[C@H](O)[C@H](C)O1 | Fulfilled
2. O=C(O)CCCc1ccc(N(CCCl)CCCl)cc1 | Not fulfilled
3. Oc1ccc(OCCN(CCOc2ccc(O)cc2)c2ccccc2)cc1 | Not fulfilled
